Reference for the values: patent US8835476B2

Below: a set of entries, each annotated with reported MIC, K. PNEUMONIAE.
System: K. pneumoniae clinical isolates
Assay: Broth microdilution MIC, clinical isolate strains (NAUTICA)
Assay type: cell-based
Conditions: Table 4B; each table row is one clinical isolate; unit assumed

Solved entries:
CCOC(=O)c1cc(-c2nnn(C)n2)c(-c2ccc(F)cc2)s1 [DNM-125] :: > 16 µg/mL
Fc1ccc(-c2cc(-c3nnn[nH]3)c(-c3ccc(F)cc3)s2)cc1 [DNM-131] :: > 32 µg/mL
Cn1nnc(-c2cc(-c3ccc(F)cc3)sc2C(=O)O)n1 [DNM-142] :: > 16 µg/mL
Cn1nnnc1-c1cc(-c2ccc(F)cc2)sc1C(=O)O [DNM-143] :: > 8 µg/mL
COC(=O)c1sc(-c2ccc(F)cc2)cc1-c1nnnn1C [DNM-145] :: > 4 µg/mL
Cn1nnc(-c2cc(-c3ccc(F)cc3)sc2-c2ccc(F)cc2)n1 [DNM-132] :: > 16 µg/mL
COC(=O)c1sc(-c2ccc(F)cc2)cc1-c1nnn(C)n1 [DNM-144] :: > 8 µg/mL
Cn1nnnc1-c1cc(-c2ccc(F)cc2)sc1-c1ccc(F)cc1 [DNM-133] :: > 16 µg/mL

API: the following record is the query input.
Ask: Could you share what MIC, K. PNEUMONIAE was measured for O=C(O)c1sc(-c2ccc(F)cc2)cc1-c1nnn[nH]1 [DNM-141] , tested on K. pneumoniae clinical isolates?
Reply: > 16 µg/mL
